From: the supplement of paper PMC10567573

Kindly supply the reported protein stability index values for the records listed here.
B1: CLINT1 (parent)
chain: VVTSAREHIYDLRSLENYHFVDEH

Variants of: B1
measurement_protocol: protein stability index of a GFP-peptide fusion (GPS, HEK-293T) (PSI 1-6); higher = more stable;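 note: lentivirally expressed fusions sorted by FACS into six bins by GFP to DsRed ratio, PSI derived from sequencing read proportions per bin multiplied by bin number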
condition_context: c terminus: a fixed tail appended
Would you mind answering with just the numeric figure?

Q. Reported protein stability index, variant H8L : ____
A. 2.29

Q. Please report the recorded protein stability index for H24M .
A. 2.92

Q. Return reported protein stability index; argument: I9G
A. 3.83

Q. What does the record list as protein stability index for L15G ?
A. 3.56

Q. Consider the variant V2G and give its measured protein stability index.
A. 3.34

Q. Would you kindly share the measured protein stability index for V1S ?
A. 3.68

Q. # lookup: protein stability index of L15V
A. 3.04

Q. What protein stability index value was documented for this variant, S14E ?
A. 2.87

Q. I am curious: what protein stability index value has been reported for H24R ?
A. 2.78

Q. Given the entry I9D , report its measured protein stability index.
A. 3.54

Q. I am curious: what protein stability index value has been reported for E7C ?
A. 1.86

Q. Item under review: V1P . Reported protein stability index?
A. 3.5

Q. Fill in: protein stability index of T3D is ___
A. 3.52

Q. // query protein stability index value for entry H24D
A. 4.13

Q. Entry under review: S14K . Reported protein stability index?
A. 2.69

Q. // lookup protein stability index for T3R
A. 3.09

Q. Consider the variant shown here: T3W What is its recorded protein stability index?
A. 2.31

Q. Report protein stability index for L12S please.
A. 3.13

Q. Name the recorded protein stability index for Y18V .
A. 3.24

Q. Any idea what protein stability index was measured for D22N ?
A. 2.35

Q. Could you tell me which protein stability index is on file for Y18A ?
A. 3.65

Q. # query: protein stability index of entry R13C
A. 2.38

Q. Need protein stability index, item L12E
A. 4.03

Q. Field request: protein stability index | item: L15N
A. 3.1

Q. Which value of protein stability index has been reported for F20Y in the records?
A. 3.24

Q. Suppose we examine the variant R13Y ; what protein stability index value has been reported?
A. 1.95

Q. Reported protein stability index, variant E7Y : ____
A. 2.57

Q. Return reported protein stability index; argument: H8K
A. 2.45

Q. For the variant N17V , what protein stability index is on record?
A. 2.14

Q. Returns the measured protein stability index for the input variant. Input: I9R
A. 3.66

Q. Quick check: protein stability index of N17F ?
A. 1.86

Q. Which value of protein stability index has been reported for E16S in the records?
A. 2.67

Q. Quick one: protein stability index for T3L ?
A. 2.32

Q. Tell me the measured protein stability index of V2Y , please.
A. 2.67

Q. Given the entry H8R , report its measured protein stability index.
A. 2.61

Q. Which protein stability index value is on record for H8I ?
A. 2.65

Q. Query: protein stability index; subject: H24F
A. 2.58

Q. Report protein stability index for L12F please.
A. 2.61

Q. Recorded protein stability index for E23S , please?
A. 2.36

Q. Which value of protein stability index has been reported for D11T in the records?
A. 2.17

Q. Tell me the measured protein stability index of Y10K , please.
A. 3.64

Q. Would you kindly share the measured protein stability index for S4L ?
A. 1.95

Q. Quick one: protein stability index for H8C ?
A. 2.1

Q. Requested read-out: protein stability index. Entry: E7K
A. 2.77

Q. Entry Y10S has what protein stability index?
A. 3.37

Q. Reported protein stability index, variant H24W : ____
A. 2.98
